# assay.info: soluble on expression in E. coli; label from the status in PepcDB or PDB records
endpoint.name: soluble on expression in E. coli

>>> obs_value("MKKLEVKDLKENFFEAIGKEWMLVTAGTKEKFNTMTASWGGIGWLWNKPVAFVFVRPERYTYEFIEKSDYLTLSFLGEANKKIHAVCGSKSGRDTDKVKATGLKPVFTEQGNVLFEQARLSLEGRKLYADNIKPECFLDKESLEKWYDDAHGGFHKMYIVEIENIWEGD")
"not soluble"
>>> obs_value("MGSDKIHHHHHHMGAMRPNQTFSHKAAVKLRSVEFLQYAGVTKFHDVILTSLVDINIGIGKRGSAQIKLPYTCVSGSLANTSGTADISLAYTHAVLVKDTYQLLGTLGGKLPTNNADKLSSDGRPLPMYYQTSLGTNDLVVGLSFITRKWLLATGYQHAFNQIGNDFRWSEWNSSAQRTEALEYPPSWNLKRGSDVMFRIERNFRSTKWNAYLGLLTIYRITPDQVSKGTSENRVEVPNTTGPAITALSGAGYRFSTAVALKAMVGVKIINRDTNPDGLSREFVSSLSVEIRL")
"not soluble"

This collection of values is drawn from the DeepSol protein solubility set.
